Parameter IC50: see the listing below.
- measuredOn: wildtype Kras / hSOS1 (Homo sapiens, UniProt P01116)
- Construct: made in house; host or cells: E. coli BL21 (DE3)
- Sequence (P01116 1-188 isoform P01116-2): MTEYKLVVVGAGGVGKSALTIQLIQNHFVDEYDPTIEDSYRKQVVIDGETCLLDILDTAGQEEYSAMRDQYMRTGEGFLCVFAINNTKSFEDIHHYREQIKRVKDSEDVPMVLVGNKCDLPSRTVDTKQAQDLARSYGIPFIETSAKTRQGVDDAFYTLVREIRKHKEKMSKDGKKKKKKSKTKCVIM
- methodNotes: HTRF assay, wildtype Kras / SOS1 interaction
- Format: binding
- reportedConditions: compound nos. 401-703; read-out: IC50 against wildtype Kras
reportedEndpoint: IC50

> print(dat)
                                   compound                                measuredon  reportedendpoint  observedresult
1  N#Cc1c(N)sc2c(F)ccc(-c3c(Cl)cc4c(N5CC6CCC(C5)N6)nc(OC[C@@]56CCCN5C[C@H](F)C6)nc4c3F)c12 [Compound 673]  wildtype Kras / hSOS1 (Homo sapiens, UniProt P01116)              IC50        > 500 nM
2  Nc1nc2c(-c3c(Cl)cc4c(N5CC6CCC(C5)N6)nc(OCC5(CN6CC[C@@H](F)C6)CC5)nc4c3F)ccc(F)c2s1  wildtype Kras / hSOS1 (Homo sapiens, UniProt P01116)              IC50        > 500 nM
3  Fc1c(N2CCCc3cccc(Cl)c32)cc(Cl)c2c(N3CCCCCC3)nc(OCC34CCCN3CCC4)nc12  wildtype Kras / hSOS1 (Homo sapiens, UniProt P01116)              IC50        < 500 nM
4  CN1CCC[C@H]1COc1nc(N2CCCC(C(N)=O)CC2)c2cc(Cl)c(-c3cccc4sc(N)nc34)c(F)c2n1 (stereo partly shown) [Compound 427]  wildtype Kras / hSOS1 (Homo sapiens, UniProt P01116)              IC50        < 500 nM
5  CN(CCC1CCC[N+]1(C)C)c1nc(N2CC3CCC(C2)N3)c2ccc(-c3ccc(F)c4sc(N)nc34)nc2n1 (stereo not shown)  wildtype Kras / hSOS1 (Homo sapiens, UniProt P01116)              IC50        > 500 nM
6  Nc1nc2c(-c3c(Cl)cc4c(N5CCCCCCC5)nc(OC[C@@]56CCCN5C[C@H](F)C6)nc4c3F)ccc(F)c2s1  wildtype Kras / hSOS1 (Homo sapiens, UniProt P01116)              IC50        > 500 nM
7  CN(C)CC1(COc2nc(N3CC4CCC(C3)N4)c3cc(Cl)c(-c4cccc5oc(N)nc45)c(F)c3n2)CC1  wildtype Kras / hSOS1 (Homo sapiens, UniProt P01116)              IC50        > 500 nM

---

Overview of reported IC50 across a group of molecules:
- measuredOn: GST-tagged K-Ras mutant / His-tagged hSOS1 (Homo sapiens)
- Sequence (P01116 whole entry G12D, form open): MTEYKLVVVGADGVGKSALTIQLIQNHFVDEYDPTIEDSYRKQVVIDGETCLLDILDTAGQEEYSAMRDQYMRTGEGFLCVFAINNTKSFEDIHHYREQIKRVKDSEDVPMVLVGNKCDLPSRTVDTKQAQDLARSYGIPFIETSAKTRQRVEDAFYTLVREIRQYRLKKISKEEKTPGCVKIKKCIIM
- methodNotes: HTRF assay, K-Ras mutant / SOS1 interaction
- Assay type: binding
- reportedConditions: compound nos. 401-703; read-out: IC50 against mutant Kras
reportedEndpoint: IC50

> print(dat)
                                   molecule  reportedendpoint  observedresult
1  Nc1nc2c(-c3c(Cl)cc4c(N5CCCC6(CCNC6)C5)nc(OC[C@@]56CCCN5C[C@H](F)C6)nc4c3F)ccc(F)c2s1 (stereo partly shown)              IC50        < 500 nM
2  Nc1nc2c(-c3c(Cl)cc4c(N5CC6CCC(C5)N6)nc(OCC5(CN6CC[C@H](F)C6)CC5)nc4c3F)ccc(F)c2s1              IC50        < 500 nM
3  CN1[C@@H]2CC[C@H]1CN(c1nc(OC[C@@]34CCCN3C[C@H](F)C4)nc3c(F)c(-c4ccc(F)c5sc(N)nc45)c(Cl)cc13)C2              IC50        < 500 nM
4  Nc1nc2c(-c3c(F)cc4c(N5CC6CCC(C5)N6)nc(OCC56CCCN5CCC6)nc4c3F)ccc(F)c2s1              IC50        < 500 nM
5  Nc1c(-c2ccccc2)cccc1-c1c(Cl)cc2c(N3CC4CCC(C3)N4)nc(OCC34CCCN3CCC4)nc2c1F              IC50        > 500 nM
6  Nc1nc2c(-c3ccc4c(N5CC6CCC(C5)N6)nc(OC[C@@]56CCCN5C[C@H](F)C6)nc4c3F)cccc2o1              IC50        > 500 nM
7  Nc1nc2c(-c3c(Cl)cc4c(N5CCCOC(CO)C5)nc(OCC56CCCN5CCC6)nc4c3F)cccc2s1 (stereo not shown)              IC50        < 500 nM

Data origin: patent US20240254129A1
